Listing: polymerase ribozyme fitness (log ratio) of selected variants
B1: TPR t1 (parent)
chain: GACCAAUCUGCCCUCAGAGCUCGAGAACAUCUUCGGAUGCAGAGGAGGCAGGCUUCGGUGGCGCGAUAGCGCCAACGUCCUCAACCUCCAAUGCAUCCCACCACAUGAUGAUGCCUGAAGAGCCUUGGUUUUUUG

Variants of: B1
protocol.details: polymerase ribozyme fitness, log enrichment relative to wild type (log ratio); higher = more active; in vitro selection for triplet polymerase activity
Respond with the number and no other words.

The examples below pair each entry with its known result.
{"columns": ["variant.label", "property.measured", "readout.value"],
 "data": [
  ["C15U G63A", "polymerase ribozyme fitness (log ratio)", -2.04],
  ["C20G G63A", "polymerase ribozyme fitness (log ratio)", -6.16],
  ["U9G C73U G113A", "polymerase ribozyme fitness (log ratio)", -0.47],
  ["G63A C123U G128C", "polymerase ribozyme fitness (log ratio)", -1.87],
  ["G17C A37U C64U U92A", "polymerase ribozyme fitness (log ratio)", -5.44]
]}

[in] Would you mind telling me what polymerase ribozyme fitness (log ratio) value was observed for C12U C49G G113U C114A U129A ?
[out] -4.7

[in] Item G63U C86G A90U C104A G110U has what recorded polymerase ribozyme fitness (log ratio)?
[out] -6.48

[in] Quick check: polymerase ribozyme fitness (log ratio) of C31G G61C ?
[out] -7.02

[in] Can you share its polymerase ribozyme fitness (log ratio)? I mean this variant: C76U G113U
[out] -2.36

meta.source: the RNAGym collection of RNA variant scans (doi:10.1073/pnas.2313332121)
